Experimental Target: T1, human CD3 on CD3+ Jurkat cells (human, UniProt P07766 23-207)
T1 construct: whole, on cells; Native CD3 complex on cells; the other CD3 chains are not specified for this assay; also called Human CD3+ Jurkat
T1 sequence (P07766 23-207): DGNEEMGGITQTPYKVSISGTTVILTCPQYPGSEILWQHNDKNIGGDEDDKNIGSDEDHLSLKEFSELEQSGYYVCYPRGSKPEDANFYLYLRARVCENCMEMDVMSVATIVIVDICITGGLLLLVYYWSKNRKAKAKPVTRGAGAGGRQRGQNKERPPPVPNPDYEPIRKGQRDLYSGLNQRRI
Experiment Notes: flow cytometry on CD3+ Jurkat cells, ratio of MFI at pH 6.0 to pH 7.4
Measurement Label: MFI pH 6.0/MFI pH 7.4

1) SAD10318_P01_D03 (ADI-48588) (antibody, V domains shown, IgG; also called Ab58) VH: QVQLVQSGAEVKKPGASVKVSCKASGFNIKDYYMHWVRQAPGQRLEWMGWIDLENANTIYDAKFQGRVTITRDTSASTAYMELSSLRSEDTAVYYCARDHYGHYFYDVWGQGTLVTVSS VL: DIVMTQSPDSLAVSLGERATINCKSSQSLLNAHTGHNYLAWYQQKPGQPPKLLIYWASTRESGVPDRFSGSGSGTDFTLTISSLQAEDVAVYYCKQSHSHRTFGGGTKVEIK :: 83.3
2) SAD10320_P01_D01 (ADI-48644) (antibody, V domains shown, IgG; also called Ab48) VH: QVQLVQSGAEVKKPGASVKVSCKASGFNIKDYYMHWVRQAPGQRLEWMGWIDLENANTIYDAKFQGRVTITRDTSASTAYMELSSLRSEDTAVYYCARDAYGHGFYDVWGQGTLVTVSS VL: DIVMTQSPDSLAVSLGERATINCKSSQSLLNARTGKNYLAWYQQKPGQPPKLLIYWASTRESGVPDRFSGSGSGTDFTLTISSLQAEDVAVYYCKQSYSHRTFGGGTKVEIK :: 6.9
3) SAD10320_P02_D05 (ADI-48650) (antibody, V domains shown, IgG; also called Ab77) VH: QVQLVQSGAEVKKPGASVKVSCKASGFNIKDYYMHWVRQAPGQRLEWMGWIDLENANTIYDAKFQGRVTITRDTSASTAYMELSSLRSEDTAVYYCARDATHRYFYDVWGQGTLVTVSS VL: DIVMTQSPDSLAVSLGERATINCKSSQSLLNARTGKNYLAWYQQKPGQPPKLLIYWASTRESGVPDRFSGSGSGTDFTLTISSLQAEDVAVYYCKQSHTRRTFGGGTKVEI :: 1.1
